Metric Name: melting point (°C)

COc1c2c(c(OC(C)=O)c3c1C(=O)c1c(cc(OC(C)=O)c(C)c1OC(C)=O)C3=O)-c1c(cc3cnn(-c4ccccc4)c(=O)c3c1OC(C)=O)CC2 = 273
CCOC(Cn1ncc2cc3c(c(O)c2c1=O)-c1c(O)c2c(c(OC)c1CC3)C(=O)c1c(cc(O)c(C)c1O)C2=O)OCC = 285

* * *

# Test system: IL-2 release from Jurkat cells
# Measurement Protocol: Inhibition of IL-2 release from Jurkat cells
# Assay type: cell-based
# Measurement Parameters: Homo sapiens; Jurkat cells stimulated with ionomycin/PMA, IL-2 ELISA of supernatants
Metric Name: IC50 (nM)

[I] COc1c2c(c(O)c3c1C(=O)c1c(cc(O)c(C)c1O)C3=O)-c1c(cc3cnn(-c4ccccc4)c(=O)c3c1O)CC2 [Compound 5]
[II] COc1c2c(c(O)c3c1C(=O)c1c(cc(O)c(C)c1O)C3=O)-c1c(cc3cn[nH]c(=O)c3c1O)CC2 [Compound 1]
stdin: Identify the item whose IC50 is the smaller number: I or II Record your answer as the label of the chosen record.
stdout: II
